B1: Pituitary-specific positive transcription factor 1, residues 130 to 198; numbered along this chain, P28069 (parent)
chain: RELEKFANEFKVRRIKLGYTQTNVGEALAAVHGSEFSQTTICRFENLQLSFKNACKLKAILSKWLEEAE

Variants of: B1
Method: abundance fitness (aPCA) (normalised: wild type 0, dead -1); higher = more abundant; growth selection in yeast, the domain comes from the species named
Test parameters: Homo sapiens
Classes based on abundance fitness: bottom end (below -0.7), midrange (-0.7 to below -0.3), top end (-0.3 or more)

Solved cases (5 shown):
[
  {
    "Residue change": "I60K",
    "Class name": "top end"
  },
  {
    "Residue change": "F51M",
    "Class name": "top end"
  },
  {
    "Residue change": "N8M",
    "Class name": "top end"
  },
  {
    "Residue change": "L3S",
    "Class name": "bottom end"
  },
  {
    "Residue change": "L49H",
    "Class name": "bottom end"
  }
]

Class? Entry: A68I top end

Class? Entry: L47P bottom end

Class? Entry: L57V top end

Class? Entry: L65F bottom end
